Read-out: JUN Transcription Factor, JUN (gene 3725)
Assay: LTEA_HepaRG_JUN: Life Technologies and Expression Analysis (LTEA) Assay for JUN Transcription Factor using HepaRG (AID 2283513)
Conditions: mRNA level, 48 h; actives raise or lower the signal
The source made the active and inactive calls. Rule for the calls: active = hit-call score of the fitted dose curve at least 0.9, where 1 is the maximum; inactive = score below 0.9.
readoutType: AC50

Use these answered entries as a reference point.
1. O=C(CCCN1CCC(O)(c2ccc(Cl)cc2)CC1)c1ccc(F)cc1: 82.7 µM (active)
2. CCC(C)c1ccccc1O (stereo not given): inactive
3. O=C1NS(=O)(=O)c2ccccc21: inactive
4. CCCCC=O: inactive

Note: attention shifts to another entry.
Problem: Dear colleague, I am looking for the recorded AC50 of the following compound: CCCCC(CC)C(=O)O (stereo not given)
Solution: inactive
